# System: Mycobacterium tuberculosis
# assay remarks: Antimicrobial activity against Mycobacterium tuberculosis after 11 days under anaerobic condition by luminescence-based low oxygen recovery assay
# Type: functional
# measurement parameters: 264 h
endpoint label: MIC

Solved cases (6 shown):
Identify the reported MIC for the following entry. O=[N+]([O-])c1cc2n(n1)CC(OCc1ccc(OCc3ccccc3)cc1)CO2 (centres undefined)
> 128 µM

Identify the reported MIC for the following entry. O=[N+]([O-])c1cn2c(n1)[S+]([O-])CC(OCc1ccc(OC(F)(F)F)cc1)C2 (centres undefined)
92 µM

Identify the reported MIC for the following entry. O=[N+]([O-])c1cc2n(n1)CC(OCc1ccc(OC(F)(F)F)cc1)CN2 (centres undefined)
111 µM

Identify the reported MIC for the following entry. O=[N+]([O-])c1cn2c(n1)CCC(OCc1ccc(OC(F)(F)F)cc1)C2 (centres undefined)
> 128 µM

Identify the reported MIC for the following entry. O=[N+]([O-])c1cc2n(n1)CC(OCc1ccc(OCc3ccccc3)cc1)CN2 (centres undefined)
> 128 µM

Identify the reported MIC for the following entry. CN1CC(OCc2ccc(OCc3ccccc3)cc2)Cn2nc([N+](=O)[O-])cc21 (centres undefined)
> 128 µM

Report MIC for every entry below.
1. O=[N+]([O-])c1cn2c(n1)SCC(OCc1ccc(OC(F)(F)F)cc1)C2 (centres undefined)
2. CN1CC(OCc2ccc(OC(F)(F)F)cc2)Cn2nc([N+](=O)[O-])cc21 (centres undefined)
3. O=[N+]([O-])c1cn2c(n1)NCC(OCc1ccc(OC(F)(F)F)cc1)C2 (centres undefined)
4. O=[N+]([O-])c1cn2c(n1)CCC(OCc1ccc(OCc3ccccc3)cc1)C2 (centres undefined)
5. O=[N+]([O-])c1cn2c(n1)[S+]([O-])CC(OCc1ccc(OCc3ccccc3)cc1)C2 (centres undefined)
6. O=[N+]([O-])c1cn2c(n1)S(=O)(=O)CC(OCc1ccc(OCc3ccccc3)cc1)C2 (centres undefined)
7. O=[N+]([O-])c1cn2c(n1)S(=O)(=O)CC(OCc1ccc(OC(F)(F)F)cc1)C2 (centres undefined)

13 µM
> 128 µM
> 128 µM
> 128 µM
> 128 µM
> 128 µM
89 µM

Identify the reported MIC for the following entry. O=[N+]([O-])c1cn2c(n1)SCC(OCc1ccc(OCc3ccccc3)cc1)C2 (centres undefined)
11 µM

###

What MIC was measured for each of the following?
# System: Mycobacterium tuberculosis
# assay remarks: Antimicrobial activity against Mycobacterium tuberculosis after 8 days in aerobic condition by alamar blue assay
# Format: functional
# measurement parameters: 192 h

Write MIC of O=[N+]([O-])c1cn2c(n1)S(=O)(=O)CC(OCc1ccc(OC(F)(F)F)cc1)C2 (centres undefined) ; system used: Mycobacterium tuberculosis
> 128 µM

Write MIC of O=[N+]([O-])c1nc2n(n1)C[C@H](OCc1ccc(OCc3ccccc3)cc1)CO2 ; system used: Mycobacterium tuberculosis
> 128 µM

Report MIC for every entry below.
1. O=[N+]([O-])c1cn2c(n1)CCC(OCc1ccc(OC(F)(F)F)cc1)C2 (centres undefined)
2. O=[N+]([O-])c1cn2c(n1)S(=O)(=O)CC(OCc1ccc(OCc3ccccc3)cc1)C2 (centres undefined)
3. O=[N+]([O-])c1cn2c(n1)CCC(OCc1ccc(OCc3ccccc3)cc1)C2 (centres undefined)
4. O=[N+]([O-])c1cn2c(n1)SCC(OCc1ccc(OC(F)(F)F)cc1)C2 (centres undefined)
5. O=[N+]([O-])c1cc2n(n1)CC(OCc1ccc(OCc3ccccc3)cc1)CN2 (centres undefined)

["126 µM", "> 128 µM", "> 128 µM", "1.1 µM", "> 128 µM"]

Report MIC for every entry below.
1. CN1CC(OCc2ccc(OCc3ccccc3)cc2)Cn2nc([N+](=O)[O-])cc21 (centres undefined)
2. O=[N+]([O-])c1cn2c(n1)[S+]([O-])CC(OCc1ccc(OCc3ccccc3)cc1)C2 (centres undefined)

1: > 128 µM; 2: > 128 µM
